- Test summary: Plasma concentration in spontaneously hypertensive rat at 3 mg/kg after 4 hrs
- Type: ADME, organism-based
- Set-up: dose 3 mg/kg
Endpoint name: concentration at 4 h

concentration at 4 h for CC1=C(C(=O)Nc2cc3cn[nH]c3cc2F)C(c2ccc(C(F)(F)F)cc2)CC(=O)N1 (stereo unspecified) is 110 ng/mL

====

Reported values: log10(IC50) for Ribosomal protein S6 kinase alpha-1 (Homo sapiens, UniProt Q15418), one per item.
All values: base-10 log of IC50 in nM.

Answered examples (5):
>>> df
                                   molecule  observed_measurement
0  CC1=C(C(=O)Nc2cc(Cl)c3[nH]ncc3c2)C(c2ccc(C(F)(F)F)cc2)CC(=O)N1 (stereo not drawn) [GSK-466317A]                  1.95
1  CC1=C(C(=O)Nc2ccc3[nH]nc(C)c3c2)C(c2ccc(C(F)(F)F)cc2)CC(=O)N1 (stereo not drawn) [GSK-466314A]                  3.29
2  CC1=C(C(=O)Nc2ccc3[nH]ncc3c2)C(c2ccc(Cl)c(Cl)c2)CC(=O)N1 (stereo not drawn) [GSK-299115A]                  2.79
3  CC1=C(C(=O)Nc2cc3cn[nH]c3cc2F)C(c2ccc(C(F)(F)F)cc2)CC(=O)N1 (stereo not drawn)                  2.89
4  CC1=C(C(=O)Nc2ccc3[nH]ncc3c2)C(c2ccc(C(F)(F)F)cc2)CC(=O)N1 (stereo not drawn)                  2.87

// each listed molecule needs a value for log10(IC50)
1. CC1=C(C(=O)Nc2ccc3[nH]ncc3c2)C(c2ccc3ccccc3c2)CC(=O)N1 (stereo not drawn) [GSK-270822A]
2. CC1=C(C(=O)Nc2ccc3[nH]ncc3c2)C(c2ccc(F)cc2)NC(=O)N1 (stereo not drawn) [GSK-180736A]

# output
[3.04, 3.49]
